Items are presented alongside their recorded ratio of amounts bound (vs GLS3000).
target_or_test_system: CD3ε homodimer protein (human, UniProt P07766 23-126, limits assumed)
Sequence (P07766 23-126 limits assumed): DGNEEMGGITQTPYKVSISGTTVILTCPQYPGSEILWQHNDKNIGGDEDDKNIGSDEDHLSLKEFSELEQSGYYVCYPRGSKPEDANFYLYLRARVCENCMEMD
assay_comment: SPR, immobilized CD3ε homodimer;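 also: biacore T200 surface plasmon resonance at 25 °C, antibody variants flowed as analytes over amine-coupled CD3ε homodimer on a CM4 chip, variant binding amount divided by that of GLS3000 antibody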

Consider the following illustrative entries.
binder	result
GLS3000 N53I (antibody, name in Kabat numbering, V domains shown, one-arm format as m2) VH: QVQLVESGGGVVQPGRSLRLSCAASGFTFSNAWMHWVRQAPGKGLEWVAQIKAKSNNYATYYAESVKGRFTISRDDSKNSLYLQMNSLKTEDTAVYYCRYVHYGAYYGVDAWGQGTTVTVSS VL: DIVMTQSPLSLPVTPGEPASISCRSSQSLVHSNRNTYLHWYQQKPGQAPRLLIYKVSIRFSGVPDRFSGSGSGTDFTLKISRVEAEDVGVYYCGQGTQVPYTFGQGTKLEIK	0.5
GLS3000 R24G (antibody, name in Kabat numbering, V domains shown, one-arm format as m2) VH: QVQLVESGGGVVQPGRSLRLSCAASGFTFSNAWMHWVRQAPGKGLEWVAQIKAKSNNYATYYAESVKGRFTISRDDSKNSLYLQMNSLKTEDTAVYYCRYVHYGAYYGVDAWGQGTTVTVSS VL: DIVMTQSPLSLPVTPGEPASISCGSSQSLVHSNRNTYLHWYQQKPGQAPRLLIYKVSNRFSGVPDRFSGSGSGTDFTLKISRVEAEDVGVYYCGQGTQVPYTFGQGTKLEIK	0.89
GLS3000 G89Q (antibody, name in Kabat numbering, V domains shown, one-arm format as m2) VH: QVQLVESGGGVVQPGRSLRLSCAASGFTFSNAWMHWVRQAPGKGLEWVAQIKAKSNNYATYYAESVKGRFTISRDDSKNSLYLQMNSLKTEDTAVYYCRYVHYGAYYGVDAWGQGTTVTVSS VL: DIVMTQSPLSLPVTPGEPASISCRSSQSLVHSNRNTYLHWYQQKPGQAPRLLIYKVSNRFSGVPDRFSGSGSGTDFTLKISRVEAEDVGVYYCQQGTQVPYTFGQGTKLEIK	0.38

Let's switch to this binder now.
Input: // returns reported ratio of amounts bound (vs GLS3000) for input GLS3000 Q93S (antibody, name in Kabat numbering, V domains shown, one-arm format as m2) VH: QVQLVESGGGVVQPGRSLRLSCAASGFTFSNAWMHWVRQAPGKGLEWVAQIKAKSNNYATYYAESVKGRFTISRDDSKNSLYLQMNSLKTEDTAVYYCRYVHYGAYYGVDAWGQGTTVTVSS VL: DIVMTQSPLSLPVTPGEPASISCRSSQSLVHSNRNTYLHWYQQKPGQAPRLLIYKVSNRFSGVPDRFSGSGSGTDFTLKISRVEAEDVGVYYCGQGTSVPYTFGQGTKLEIK
Output: 0.96
